Numbers sourced from ChEMBL document CHEMBL1147815.

Tested on: HL-60
assay-remarks: Antiproliferative activity against human HL60 cells
Assay type: functional, cell-based
measurement-name: pIC50
Note on units: pIC50 is unitless, being -log10 of a concentration expressed in mol/L.

These solved cases illustrate the format of a correct answer.
{"columns": ["smiles-string", "pIC50"],
 "data": [
  ["COc1cccc(/C=C\\c2cc(OC)cc(OC)c2)c1", 5.55],
  ["O=[N+]([O-])c1ccc(/C=C/c2ccc(O)cc2)cc1", 5.60],
  ["COc1ccc(/C=C\\c2cc(OC)cc(OC)c2)cc1", 6.82],
  ["COc1cc(/C=C/c2cc(OC)c(OC)c(OC)c2)cc(OC)c1", 4.66],
  ["COc1cc(/C=C\\c2cc(OC)c(OC)c(OC)c2)cc(OC)c1", 5.74]
]}

Query: Could you share which pIC50 value was measured for Cc1ccc(/C=C/c2ccc(O)cc2)cc1C ?
Response: 5.46

Query: Same question for COc1cccc(/C=C/c2cc(OC)cc(OC)c2)c1 please.
Response: 4.43

* * *

Tested on: HL-60
assay-remarks: Apoptosis inducing activity in human HL60 cells
Format: functional, cell-based
Below, each entry is listed alongside its reported AC50.
// note: answer is a bare numeric in µM

Consider the following illustrative entries.
{"columns": ["smiles-string", "unit-name", "AC50"],
 "data": [
  ["O=[N+]([O-])c1ccc(/C=C/c2ccc(O)cc2)cc1", "µM", 4.8],
  ["Cc1ccc(/C=C/c2ccc(O)cc2)cc1C", "µM", 6]
]}

Query: Please report the recorded AC50 for COc1cccc(/C=C/c2cc(OC)cc(OC)c2)c1 .
Response: 70

Query: Can you handle COc1cc(/C=C/c2cc(OC)c(OC)c(OC)c2)cc(OC)c1 next?
Response: 42

Query: Similarly, COc1ccc(/C=C\c2cc(OC)cc(OC)c2)cc1 ?
Response: 0.24

Query: Okay, and COc1cc(/C=C\c2cc(OC)c(OC)c(OC)c2)cc(OC)c1 ?
Response: 2.6

Query: Repeat for the following compound: COc1cccc(/C=C\c2cc(OC)cc(OC)c2)c1
Response: 5.4
